Source of measurements: PubChem BioAssay

- TEST_PROTOCOL: FRG1 promoter luciferase signal modulators, primary screen, FRG1 inhibition for FSHD, cell-based, C2C12 myotubes, firefly/Renilla luciferase, luminescence (AID 1084)
- PROTOCOL_CONDITIONS: higher = more signal, called active from +8 up or from −8 down
Activity calls are given as the source filed them.
Give z-score for every item shown.

Example results:
* O=C1O[C@@H](c2ccccc2)[C@@H](c2ccccc2)N2[C@@H](c3ccc(OCCO)cc3)[C@]3(C(=O)Nc4ccccc43)[C@@H](C(=O)NC[C@H](O)c3ccccc3)[C@H]12 | -2.2 (inactive)
* COC(=O)[C@@]1(Cc2ccc(OC)cc2)[C@H]2c3cc(C(=O)N4CCCC4)n(Cc4ccsc4Br)c3C[C@H]2CN1C(=O)c1ccccc1 | 3.4 (inactive)

Below: the item to evaluate.
Could you tell me which z-score is on file for C=CC[C@@]1(C(N)=O)N=C(c2ccc(OCCCO)cc2)O[C@@H]1c1ccccc1CN=[N+]=[N-] ?
2.94 (inactive)

* * *

- TEST_PROTOCOL: basal S. cerevisiae growth modulation, no modifier, primary screen, OD600, strain BY4716, 24 h, basal condition (AID 1173)
- PROTOCOL_CONDITIONS: OD600, 24 h, called active from +8 up or from −8 down
Active and inactive are the calls of the source.
Permitted responses: yes = active, no = inactive

Before answering, review these 4 worked examples.
- [N-]=[N+]=NCc1ccccc1[C@@H]1OC(c2ccc(OCCCO)cc2)=N[C@]1(CCS(=O)(=O)c1ccccc1)C(=O)NCc1ccccc1: no
- C=CCC(OC(C)=O)[C@@H]1[C@@H](N(Cc2ccc(-c3cccc(C(F)(F)F)c3)o2)C(=O)c2ccc(-c3ccccc3)cc2)c2cc(OCCCO)ccc2N1C(=O)c1ccc(-c2ccccc2)cc1 (stereo partly drawn): no
- CC(C)(C)OC(=O)CC[C@@]1(C(=O)NCCN2CCOCC2)N=C(c2ccc(OCCCO)cc2)O[C@@H]1c1ccccc1N=[N+]=[N-]: no
- C=C(COC)/C(=C/C[C@@H](OC(C)=O)c1ccc(OCCO)cc1)c1cc(C(=O)OC)ccc1OC: no

// return assay outcome for CCOC(=O)C[C@H]1[C@H](OC(=O)c2cc3ccccc3oc2=O)[C@@H](NC(=O)Cc2ccc(OC)cc2)c2cc(OCCCO)ccc2N1C(=O)c1ccccc1
no

// return assay outcome for CC(C)OC(=O)C=C1C[C@@H](c2ccccc2C(F)(F)F)O[C@@H](c2ccccc2C(F)(F)F)O1
no

// return assay outcome for CCCC[C@@H]1C[C@H]1[C@@H](NC(=O)c1ccco1)c1ccc(Cl)cc1
no

// return assay outcome for COCCCN1C(=O)[C@@]2(Cc3ccccc31)c1ccccc1C(=O)N(Cc1ccccc1C(F)(F)F)[C@H]2c1ccc(CO)cc1
no

// return assay outcome for COC(=O)C=C(CC(O)c1cccc(Cl)c1)OC (stereo not drawn)
yes

// return assay outcome for CN(C)CCCC[C@@H]1NC(=O)[C@H]2C[C@@H](C(=O)NCCCCCNC(=O)CS)[C@@H](c3cccc(OCCO)c3)N2C1=O
no

// return assay outcome for COc1ccc(C(O)C2C=CC3C(=O)N(C)C(=O)C3N2N2CCCCC2)c2ccccc12 (stereo not drawn)
no

* * *

- TEST_PROTOCOL: basal S. cerevisiae growth modulation, no modifier, primary screen, OD600, strain BY4716, 24 h, basal condition (AID 1173)
- PROTOCOL_CONDITIONS: OD600, 24 h, higher = more signal, called active from +8 up or from −8 down
METRIC: z-score
Numbers only.

Example results:
* CN(C)CCCCCCNC(=O)[C@@H]1C[C@@H]2C(=O)N[C@@H](CCCCN)C(=O)N2[C@@H]1c1cccc(OCCO)c1 | -0.707
* C=CCOC(=O)[C@@H]1[C@H]2C(=O)O[C@H](c3ccccc3)[C@H](c3ccccc3)N2[C@H](c2ccc(OCCOC(=O)[C@@H]3C[C@@H]4C(=O)N[C@@H](CCCC[N+](C)(C)C)C(=O)N4[C@@H]3c3cccc(OCCO)c3)cc2)[C@@]12C(=O)Nc1ccc(I)cc12 | -1.21
* COCCOC(=O)N1C(=O)[C@@]2(c3cc(C#Cc4ccc(OC)cc4)ccc31)[C@H](C(=O)N1CCCCCCC1)[C@H]1C(=O)O[C@H](c3ccccc3)[C@H](c3ccccc3)N1[C@@H]2c1ccc(OCCO)cc1 | 0.777
* O=C1OCCC/C=C\[C@H]2OC34C=CCN(CCN5CCOCC5)C(=O)[C@H]3N(CCCO)C(=O)[C@@H]4C12 (stereo not given in full) | -0.314

Could you tell me which z-score is on file for COCCOC(=O)N1C(=O)[C@@]2(c3cc(C#CCCO)ccc31)[C@H](C(=O)N1CCN(c3ncccn3)CC1)[C@H]1C(=O)O[C@H](c3ccccc3)[C@H](c3ccccc3)N1[C@@H]2c1ccccc1OCCO ?
0.674
